Protocol text: Metabolic stability in dog liver microsomes assessed as half life measured upto 120 mins
Format: ADME, Canis lupus familiaris, Microsome
Measurement context: liver microsomes
Catalogue of half-life values
Observation type: half-life (min)

{"Structure smiles string": "Cc1cc([C@H](C2CCOCC2)n2c3cc(C(C)(C)O)ccc3c3ncc(-c4c(C)nnn4C)cc32)no1", "Endpoint value": 38}
{"Structure smiles string": "[2H]C([2H])([2H])c1nnn(C)c1-c1cnc2c3cc(F)c(C(C)(C)O)cc3n([C@H](c3cc(C)on3)C3CCOCC3)c2c1", "Endpoint value": 33}
{"Structure smiles string": "[2H]C([2H])([2H])c1nnn(C)c1-c1cnc2c3ccc(C(C)(C)O)cc3n([C@H](c3cc(C)on3)C3CCOCC3)c2c1", "Endpoint value": 75}
{"Structure smiles string": "[2H]C([2H])([2H])c1nnn(C)c1-c1cnc2c3ccc(C(C)(C)O)cc3n([C@H](c3ccc(Cl)cn3)C3CCOCC3)c2c1", "Endpoint value": 61}
{"Structure smiles string": "Cc1cc([C@H](C2CCOCC2)n2c3cc(C(C)(C)O)ccc3c3ncc(-c4c(C)nnn4C)cc32)n(C)n1", "Endpoint value": 52}
{"Structure smiles string": "[2H]C([2H])([2H])c1nnn(C)c1-c1cnc2c3ccc(C(C)(C)O)c(F)c3n([C@H](c3cc(C)on3)C3CCOCC3)c2c1", "Endpoint value": 52}
{"Structure smiles string": "[2H]C([2H])([2H])c1nnn(C)c1-c1cnc2c3ccc(C(C)(C)O)c(F)c3n([C@H](c3ncccc3F)C3CCOCC3)c2c1", "Endpoint value": 37}
{"Structure smiles string": "[2H]C([2H])([2H])c1nnn(C)c1-c1cnc2c3c(F)cc(C(C)(C)O)cc3n([C@H](c3cc(C)on3)C3CCOCC3)c2c1", "Endpoint value": 71}
{"Structure smiles string": "[2H]C([2H])([2H])c1nnn(C)c1-c1cnc2c3ccc(C(C)(C)O)cc3n([C@H](c3ncccc3F)C3CCOCC3)c2c1", "Endpoint value": 36}

###

Protocol text: Permeability of the compound at pH 7.4 by PAMPA
Assay type: ADME
Measurement context: read-out: permeability
Checkbox rule: Papp lower than 60 ×10⁻⁶ cm/s = t; Papp not lower than 60 ×10⁻⁶ cm/s = f.

{"Compound": "[2H]C([2H])([2H])c1nnn(C)c1-c1cnc2c3c(F)cc(C(C)(C)O)cc3n([C@H](c3cc(C)on3)C3CCOCC3)c2c1", "Assigned category": "t"}
{"Compound": "[2H]C([2H])([2H])c1nnn(C)c1-c1cnc2c3ccc(C(C)(C)O)c(F)c3n([C@H](c3cc(C)on3)C3CCOCC3)c2c1", "Assigned category": "f"}
{"Compound": "[2H]C([2H])([2H])c1nnn(C)c1-c1cnc2c3cc(F)c(C(C)(C)O)cc3n([C@H](c3cc(C)on3)C3CCOCC3)c2c1", "Assigned category": "f"}
{"Compound": "Cc1nnn(C)c1-c1cnc2c3ccc(C(C)(C)O)cc3n(C(c3cnn[nH]3)C3CCOCC3)c2c1 (stereo not given)", "Assigned category": "t"}
